- System: JAK2(JH1domain-catalytic)
- Particulars: concentration: 1 μM, replicates: in singlicate; n = 1;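 note: KINOMEscan kinase panel screen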
Can you tell me %Inh for the items I'm about to list?
Numbers only, in %.

* CNc1nc(-c2ccc3c(N)n[nH]c3c2)cc(N2C[C@@H](C(=O)Nc3ccccc3)CC[C@H]2C)n1 [GSK2298859] | 0
* c1ccc(-c2ccnc3[nH]ccc23)cc1 [SB-693578] | 69
* CCc1ccc(-c2ccc3c(c2)-c2n[nH]cc2S(=O)(=O)N3C)cc1 | 3
* CNc1nc(-c2ccc3c(N)n[nH]c3c2)cc(N2C[C@@H](C(=O)NC3CCCCC3)OC[C@H]2C)n1 [GSK2375584] | 0

In the following, a different compound is considered.
Please report the recorded %Inh for COC(=O)c1cccc(NC(=O)NC2CCN(c3ccnc(Nc4ccc(OC)cc4)n3)C2)c1 (centres unmarked) [GSK1379746] .
2

====

Exercise: for every item that follows, state its recorded %Inh.
- Test system: HASPIN
- Construct: gene GSG2
- Particulars: concentration: 1 μM, replicates: in singlicate; n = 1
One number for each entry, in %.

Some solved cases for reference:
- Cc1ccc(NC(=O)Nc2ccccc2F)cc1-c1ccc(C(=O)Nc2ccncc2)cc1 [GSK1398477]: 0
- COc1cccc(C2=C(Nc3cc(Cl)c(O)c(Cl)c3)C(=O)NC2=O)c1 [SB-390767]: 0
- O=C1NC(=O)C(c2ccc(Cl)cc2)=C1Nc1cccc(Cl)c1 [SB-317651]: 0

Record %Inh for all entries; do not skip any.
1. Fc1ccc(-c2nc3n(c2-c2ccncc2)CCS3)cc1 [GI98581]
2. CN1c2ccc(-c3ccc(C(N)=O)cc3)cc2-c2[nH]ncc2S1(=O)=O
3. Nc1cccc(-c2ccc3c(N)n[nH]c3c2)n1 [GSK2192730]
4. Nc1ncnc2occ(-c3ccc4c(c3)CCN4C(=O)Cc3cc(F)ccc3F)c12 [GSK2645446]

1. 13
2. 28
3. 39
4. 0

Hey, quick one: what's %Inh for each of these?
1. Cc1ccc(NC(=O)Nc2ccccc2)cc1-c1ccc(C(=O)Nc2ccncc2)cc1 [GSK1398471]
2. Nc1nccc(-c2c(-c3ccc(F)cc3)ncn2C2CCN(Cc3ccccc3)CC2)n1 [SB-219980]
3. O=C1NC(=O)C(c2ccc(Cl)cc2)=C1Nc1ccc(O)cc1 [SB-340867]
4. CC(=O)c1c(C)c2cnc(Nc3ccn(C)n3)nc2n(C2CCCC2)c1=O
5. COc1ccc(-c2coc3ccc(-c4nnc(C)o4)cc23)cc1
6. COc1ccc(Nc2nccc(N3CCC(NC(=O)c4cc5ccccc5s4)C3)n2)cc1 (stereo not drawn) [GSK1379738]
7. CS(=O)(=O)Cc1ccc(Nc2nccc(-c3c(-c4cccc(NC(=O)C5CCCCC5)c4)nn4ncccc34)n2)cc1 [GSK350559]

[1, 0, 9, 0, 18, 24, 17]

Query (compound): Fc1ccc(-c2nc[nH]c2-c2ccncc2)cc1 [SB-217360] ; field requested: %Inh
57

====

- Tested on: MLCK
- Construct: gene MYLK3
- Particulars: concentration: 1 μM, replicates: in singlicate; n = 1
Please respond with reported %Inh for every item in the list.
Answers are plain numbers, in %.

Solved cases below.
* Nc1nccc(-c2c(-c3ccc(F)cc3)ncn2C2CCN(Cc3ccccc3)CC2)n1 | 5
* COC(=O)c1cccc(NC(=O)NC2CCN(c3ccnc(Nc4ccc(OC)cc4)n3)C2)c1 (stereo not drawn) | 4
* Cc1cnc(N)c(/C=C/c2cncc(C(=O)NCCc3ccc(Cl)cc3Cl)c2)c1.Cl | 6
* CC(=O)c1c(C)c2cnc(Nc3ccc(N4CCNCC4)cn3)nc2n(C2CCCC2)c1=O | 8
* Fc1ccc(-c2nn3cccc(F)c3c2-c2ccncc2)cc1 | 0
* COc1cccc(CNC(=O)NC2CCN(c3ccnc(Nc4ccc(F)cc4)n3)C2)c1 (stereo not drawn) | 0
* COc1ccc(CSc2nnc(-c3ccc4ncsc4c3)o2)cc1C(F)(F)F | 0
* CS(=O)(=O)CCNCc1nc(-c2ccc3ncnc(Nc4ccc5c(cnn5Cc5ccccc5)c4)c3c2)cs1.Cl.Cl | 0

Hey, quick one: what's %Inh for each of these?
1. Cc1ccc(NC(=O)Nc2ccccc2F)cc1-c1ccc(C(=O)Nc2ccncc2)cc1
2. O=C(Nc1n[nH]c2nc(-c3cccs3)c(Br)cc12)C1CC1
3. c1ccc(-c2ccnc3[nH]ccc23)cc1
4. Cc1ccc(NC(=O)c2ccc(Cl)cc2)cc1-c1ccc(C(=O)Nc2ccncc2)cc1
5. Cc1ccccc1Cn1ccn2c(=O)cc(N3CCOCC3)nc12
6. CC(C)c1cc(-c2ccc3c(N)n[nH]c3c2)nc(N)n1
7. COC(=O)C(Cc1ccccc1)NC(=O)NC1CCN(c2ccnc(Nc3ccc(F)cc3)n2)C1 (stereo not drawn)

11
90
0
0
0
16
5

Give %Inh for each of the items listed below.
1. Cc1ccc(-c2nc(Nc3ccncc3)c3ccccc3n2)s1
2. O=C1NC(=O)C(c2ccc(Cl)cc2)=C1Nc1cccc(Cl)c1
3. COc1cccc(C2=C(Nc3cc(Cl)c(O)c(Cl)c3)C(=O)NC2=O)c1

[14, 0, 0]

Cited source for all entries: paper PMC5540273
